Source listed as PubChem BioAssay (NCI).

Assay: NCI Yeast Anticancer Drug Screen. Data for the mlh1 rad18 strain (AID 175)
Settings: S. cerevisiae mlh1 rad18 strain growth inhibition; at 50.0 µM
This is part of a sample that, as a whole, favours compounds with a hit. Of some 79,000 tested, about 15% had one in any assay. Calls of active or inactive are those of the source. Cut-off read from the data, not from the text of the source: active = growth inhibition above about 70%; inactive = the rest.
// allowed return values: class 1 = active, class 0 = inactive

Returns: the outcome recorded for Nc1ncnc2nn(C3OC(CO)C(O)C3O)nc12 (stereo unspecified) in this assay.
class 0

What call does the record list for `O=C(OCc1ccc2c(c1)OCO2)c1ccc(Cl)cc1` ?
class 0

Look up the recorded call for `CCOC(=O)/C(=C\n1c(=O)sc2ccccc21)C(=O)c1ccccc1` in this test.
class 0

In this assay, the call recorded for CC(C)(C)c1cc(C(c2cc3c(cc2O)OCO3)N2CCOCC2)cc(C(C)(C)C)c1O (stereo unspecified) was what?
class 0

How did this test come out for `Cc1ccccc1NC(=O)CSC(N)=O` ?
class 1

// param item: `CCCCCCN(CCCCCC)CCCCCC` ; yields the recorded call
class 0

Status in this test for `C1=C(C2=CCCc3ccccc32)c2ccccc2CC1` ?
class 1

Name the outcome recorded for `O=C1c2ccccc2C(=O)c2c(/C=C\N3CCCCC3)ccnc21` in the assay.
class 1

Outcome logged for `O=C1C(Cl)=C(Cl)C(=O)c2cc(Cl)c(Cl)cc21` in this assay:
class 1

Hi, do you know how `CN(C)CCN(C)CCC(=O)/C=C/c1ccccc1` came out in this test?
class 1

Test call, this compound: `CC1(c2cccs2)C(C#N)(C#N)C1(C#N)C#N`
class 1

How was `S=c1ncc2c([nH]1)C1c3ccccc3C2c2ccccc21` classified in this test?
class 1

Outcome? Cc1ccc(S(=O)(=O)N/N=C2\CC(C)OC3=C2CCCCCC3)cc1 (stereo unspecified)
class 0

Each compound tested received a call. Report the one for `CCc1cc2nc3c(=O)[nH]c(=O)nc-3n(CCN(CCO)CCO)c2cc1CC` .
class 1

Recorded call for `C1=Nc2ccccc2/C1=C/c1ccccc1` ?
class 0

Which outcome was entered for the compound `CC(=Nc1ccc(S(=O)(=O)c2ccc(N=C(C)N3CCCCC3)cc2)cc1)N1CCCCC1` in this test?
class 0

---

Test: NCI Yeast Anticancer Drug Screen. Data for the sgs1 mgt1 strain (AID 161);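 note: 0% = growth of cultures given vehicle only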
Details: S. cerevisiae sgs1 mgt1 strain, at 50.0 µM (retest, dose inferred, filed as 5.0)
This is part of a sample that, as a whole, favours compounds with a hit. Of some 79,000 tested, about 15% had one in any assay. The source made the active and inactive calls. No stated cut-off is given here; in the data, active means growth inhibition above about 70%; inactive means the rest.
Respond with a class label; see class 1 (active), class 0 (inactive)

// outcome(item) with item = `CC(C)(O)[C@H](CCO)O[Si](c1ccccc1)(c1ccccc1)C(C)(C)C`
class 1

Which outcome was entered for the molecule CC(C)(C)CCCC(C(=O)O)c1ccccc1 (centres undefined) in this test?
class 0

# lookup: test call for `COC(=O)c1ccc([N+](=O)[O-])o1`
class 0

// outcome(item) with item = `CSc1cc(N)nc(N)n1`
class 0

Please indicate how the test categorized `O=NN(CCCl)C(=O)Nc1cc(=O)[nH]c(SCc2ccccc2)n1` .
class 0

Short answer needed: outcome of this test for COC1OC(=O)CC1C1CC=C2C3CCC4CC(O)CCC4(C)C3CCC21C (centres undefined) ?
class 1

For `Cc1cc(NC(=S)SCc2ccc(F)cc2)c([N+](=O)[O-])cc1C` , which call appears in the assay record?
class 1

Which outcome was entered for the molecule `CS(=O)(=O)OCCN(CCOS(C)(=O)=O)c1ccc(C=Nc2cc(Br)c(O)c(Br)c2)c(Cl)c1` in this test?
class 1

Status in this test for `Cc1nn(CCO)c(=O)c(C#N)c1C` ?
class 0

Tell me the recorded outcome of this test for `CSc1nnc(CCC(=O)Nc2c(C)cccc2C(C)(C)C)o1` .
class 0

Dear colleague, could you share the recorded outcome for CCC(C)N(C(=O)c1ccccc1)c1ccccc1 (centres undefined) when you have a moment?
class 0

Please share the test call associated with `N=C1c2ccccc2-c2ccccc21` .
class 0

What did the test return for `Nc1ccc(N=Nc2ccccc2)c2ccccc12` ?
class 1

Returns: the outcome recorded for `O=[N+]([O-])c1ccc(CCCl)c(CCl)c1` in this assay.
class 1

Given `CC(=O)N(C1=C(Cl)C(=O)c2ccccc2C1=O)c1ccc(F)cc1` , state the outcome it received in this test.
class 1

// return assay outcome for `CC(C)NC(=O)OCc1c(CO)c2c(n1C)-c1ccccc1CC2`
class 1

Please share the test call associated with `O=c1[nH]c2c([N+](=O)[O-])cc(Cl)cc2nc1/C=C(\O)c1ccc(F)cc1` .
class 0

Name the outcome recorded for CC(=O)OC1CCC2(C)C(CCC3C2CCC2(C)C4CCC32OC(=O)C4CC(=O)O)C1 (centres undefined) in the assay.
class 0

Dear colleague, could you share the recorded outcome for `Nc1ncnc2c1c(-c1ccccc1)cn2-c1ccc(I)cc1` when you have a moment?
class 0

So what was the verdict on `CCCCCN(CCCCC)CCCNc1ccc(C)c2sc3ccccc3c(=O)c12` in this test?
class 1

# fetch the recorded call for `Oc1ccc(O)c2nc3ccccc3nc12` here
class 1

For `CC(CO)(CO)N=Cc1cc(I)cc(I)c1O` , what call appears in the results of this test?
class 1

Name the outcome recorded for `CC(C)N=Cc1cc(Br)cc(Br)c1O.CC(C)N=Cc1cc(Br)cc(Br)c1O.[Co]` in the assay.
class 1

I'd appreciate the recorded outcome for `C=Cc1cc(O)cc2c1-c1ccc(O)c(C)c1CC2` from this test.
class 1
